# measurement-target: T1, ZIKV E protein domain III (DIII), strain H/PF/2013 (Zika virus H/PF/2013)
# T1 chain: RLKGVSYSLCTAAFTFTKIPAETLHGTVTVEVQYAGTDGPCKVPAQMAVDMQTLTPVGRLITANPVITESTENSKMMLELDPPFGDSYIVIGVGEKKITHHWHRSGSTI
# measurement-protocol: BLI
Please respond with reported t1/2 for every item in the list.
One number for each entry, in min.

Past entries and their recorded results:
[
  {
    "binder": "ZV-48 mouse monoclonal antibody (antibody, V domains shown) VH: QVQLQQPGAELLKPGASVKLSCKASGYSFSNYWMHWVKQRPGQGPEWIGMIHPNSGNTKYNEKFKNKATLTVDKSSSMVYMQLSSLTSEDSAVFYCARLGNDMDYWGQGTSVTVSS VL: DIVMSQSPSSLAVSVGEKITMSCKSSQSLLYSNNEKNYLAWYQQKPGQSPKLLIYWASARDSGVPDRFTGSGSGTDFTLTISSVKAEDLAVFYCQQYYSYPYTFGGGTKLEIK",
    "t1/2 (min)": 3.2
  },
  {
    "binder": "ZV-2 mouse monoclonal antibody (antibody, V domains shown) VH: QVQLQESGAELMKPGASVKLSCKTSGYTFIGYWIEWLKQRPGHGLEWVGEIFPGSGRTKYNEKFKGRATFTADTSSNMAYMQLSSLTTEDSAIYYCARYYYGSYYALDYWGQGTSVTVSS VL: DIVMTQSPSSLSVSAGEKVTLSCKSSQSLLHSGNQKNYLAWYQQKPGQAPKLLIYGASTRESGVPDRFTGSGSGTDFTLTISSVQAEDLAVYYCQNDHSYPLTFGAGTKLELK",
    "t1/2 (min)": 0.3
  },
  {
    "binder": "ZV-54 mouse monoclonal antibody (antibody, V domains shown) VH: QVQLQQSGVGLARPGTSVKLSCKASGYSFTTYGISWVTQRPGQGLEWIGVIYPRSNNTYYNERFRGKATLTADKSSSSAYLELRGLTAEDSAVYFCARENYGSVYWGQGTTLTVSS VL: DIVMTQSQKFMSTSVGDRVTITCKASQSVGTAVAWYHQKPGQSPKLLIYSASNRYTGVPDRFTGSGSGTDFTLTITYMQSEDLADYFCQQFSNYPFTFGGGTKLEIK",
    "t1/2 (min)": 33
  }
]

Could you now look at the following binder, please?
Please look up its t1/2: ZV-67 mouse monoclonal antibody (antibody, V domains shown) VH: QAQLQQSGTGLARPGASVKLSCKASGYTFTSYGISWVTQRAGQGLEWIGVIYPRSGNTYYNEKFRGKATLTADKSSSSAYMELRGLTAEDSAVYFCARENYGSVYWGQGTTLTVSS VL: DIVMTQSQKFMSTSVGDRVSITCKASQNVGTAVAWYQQKPGQSPKLLIYSASNRYTGVPDRFTGSGSGTDFTLTISNMQSEDLADYFCQQFSSYPYTFGGGTKLEIK 13.8
